Cited source for all entries: the supplement of paper PMC11908140

B1: library; numbered along this chain (parent)
chain: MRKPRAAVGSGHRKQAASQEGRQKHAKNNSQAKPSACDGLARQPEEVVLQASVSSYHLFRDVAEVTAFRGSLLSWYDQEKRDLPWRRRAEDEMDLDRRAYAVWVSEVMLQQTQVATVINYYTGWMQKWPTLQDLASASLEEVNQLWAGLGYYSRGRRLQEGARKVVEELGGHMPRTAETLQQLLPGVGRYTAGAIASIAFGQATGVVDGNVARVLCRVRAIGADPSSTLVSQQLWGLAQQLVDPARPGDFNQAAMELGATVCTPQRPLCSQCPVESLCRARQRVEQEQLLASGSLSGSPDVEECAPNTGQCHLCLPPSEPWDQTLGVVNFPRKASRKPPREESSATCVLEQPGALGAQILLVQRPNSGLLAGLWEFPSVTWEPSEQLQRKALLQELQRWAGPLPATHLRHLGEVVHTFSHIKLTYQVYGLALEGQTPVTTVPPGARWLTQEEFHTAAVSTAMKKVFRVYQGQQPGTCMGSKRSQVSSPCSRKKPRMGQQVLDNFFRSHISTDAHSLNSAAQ

- Variants of: B1
- measurementProtocol: 8OG:A repair function score (normalized; synonymous = 0, nonsense = -1) (normalized log-likelihood score); higher = more repair activity (WT-like);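 further: cells sorted at 72 h after reporter transfection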
- assayConditions: with 8OG:A DNA repair reporter (GFP) in HEK-293 MUTYH KO cells
In this section, each of the variants is paired with its reported 8OG:A repair function score.
Number only, no unit.

| variantNotation | quantitativeResult |
| --- | --- |
| K80G | -0.194 |

Please give the documented 8OG:A repair function score of "F505W"
0.00244

Please give the documented 8OG:A repair function score of "A220M"
-0.551

Please give the documented 8OG:A repair function score of "D502V"
-0.0389

Please give the documented 8OG:A repair function score of "P365L"
-0.0397

Please give the documented 8OG:A repair function score of "R281D"
-0.447
